- Test system: cultured human mast cells
- Assay Comment: Degranulation inhibition test using cultured human mast cells (IgE cross-linking, β-Hexosaminidase release)
- Type: cell-based
- Conditions: Mast cell; Tables 1-x, compounds A; cultured human mast cells; read-out: human degranulation ave. IC50
pIC50: −log10 of the molar value. Structures can show the parent of a compound that is named as a salt.
Measurement Name: pIC50

Here's what some known entries look like.
CC(=O)c1ccnc(Nc2cccc(-c3cnc(N4CCC[C@H]4C(=O)O)s3)n2)c1 [Compound A-564, dihydrochloride]    < 6.00
Cc1ccnc(Nc2cccc(-c3cnc(N(CC(=O)N(C)C)Cc4ccc(C(=O)O)cc4)s3)n2)c1 [Compound A-597, dihydrochloride]    < 6.00
COc1cc(C(=O)O)ccc1CN(C)c1ncc(-c2cccc(Nc3cc(C)ccn3)n2)s1 [Compound A-606, dihydrochloride]    6.00 to 7.00

Look up and state reported pIC50 for CC(=O)c1ccnc(Nc2cccc(-c3cnc(N4CCC[C@@H](C(=O)O)C4)s3)n2)c1 [Compound A-560]
6.00 to 7.00

----------
- Test system: cultured human mast cells
- Assay Comment: Degranulation inhibition test using cultured human mast cells (IgE cross-linking, β-Hexosaminidase release)
- Format: cell-based
- Conditions: Mast cell; Tables 1-x, compounds A; cultured human mast cells; read-out: human degranulation ave. IC50
pIC50: −log10 of the molar value.
Measurement Name: pIC50

Here's what some known entries look like.
Cc1ccnc(Nc2cccc(-c3cnc(N4CCC[C@@H](CO)C4)s3)n2)c1    > 7.00
Cc1ccnc(Nc2cccc(-c3cnc(N4CCC(CC(=O)O)C4)s3)n2)c1 (stereo not shown)    < 6.00
CNC(=O)CN1C(=O)OC[C@H]1c1ncc(-c2cccc(Nc3cc(C)ccn3)n2)s1    < 6.00

Proceeding to the next molecule to report its pIC50.
Look up and state reported pIC50 for Cc1ccnc(Nc2cccc(-c3cnc(CN4CCN(c5ccc(O)cc5)CC4)s3)n2)c1
6.00 to 7.00

----------
- Target System: GST-Syk Full Protein (human) (Homo sapiens, UniProt P43405)
- Assay Comment: Syk kinase inhibition test (HTRF method)
- Type: biochemical
- Conditions: Tables 1-x, compounds A; read-out: sykHTRF ave IC50
Measurement Name: IC50

Here's what some known entries look like.
Cc1ccnc(Nc2cccc(-c3cnc(N4CCC(C(=O)NC(C)(C)CO)CC4)s3)n2)c1 [Compound A-455]    0.1 to 1 µM
Cc1ccnc(Nc2cccc(-c3cnc(N4CCC(C)(C(=O)O)CC4)s3)n2)c1 [Compound A-540]    < 0.1 µM
Cc1ccnc(Nc2cccc(-c3cnc([C@@H]4CNC(=O)O4)s3)n2)c1 [Compound A-409]    < 0.1 µM

Look up and state reported IC50 for Cc1ccnc(Nc2cccc(-c3cnc(N4CCN(C(=O)N(C)C)CC4)s3)n2)c1 [Compound A-441]
< 0.1 µM

----------
- System: cultured human mast cells
- Assay Comment: Degranulation inhibition test using cultured human mast cells (IgE cross-linking, β-Hexosaminidase release)
- Assay type: cell-based
- Conditions: Mast cell; cultured human mast cells, anti-hIgE stimulation, β-Hexosaminidase index, average; read-out: human degranulation ave. IC50
Measurement Name: IC50

Cc1ccnc(Nc2cccc(-c3cnc([C@@H]4COC(C)(C)O4)s3)n2)c1    100 to 1000 nM
Cc1ccnc(Nc2cccc(-c3cnc([C@H](C)N)s3)n2)c1    100 to 1000 nM

Look up and state reported IC50 for CNC(=O)N1CCC(c2ncc(-c3cccc(Nc4cc(C)ccn4)n3)s2)CC1
100 to 1000 nM

Look up and state reported IC50 for Cc1ccnc(Nc2cccc(-c3cnc([C@H](C)NC(=O)CO)s3)n2)c1
100 to 1000 nM

Look up and state reported IC50 for Cc1ccnc(Nc2cccc(-c3cnc(CCC4CCN(C(=O)C5CCC(O)CC5)CC4)s3)n2)c1 (centres unmarked)
> 1000 nM

Look up and state reported IC50 for Cc1ccnc(Nc2cccc(-c3cnc([C@H]4CC[C@H](C(=O)N5CCC(CO)CC5)CC4)s3)n2)c1
100 to 1000 nM

Look up and state reported IC50 for Cc1ccnc(Nc2cccc(-c3cnc(C(O)Cc4ccc(O)cc4)s3)n2)c1 (centres unmarked)
100 to 1000 nM

Look up and state reported IC50 for Cc1ccnc(Nc2cccc(-c3cnc(C(=O)NCCC(=O)O)s3)n2)c1
> 1000 nM

----------
- Test system: cultured human mast cells
- Assay Comment: Degranulation inhibition test using cultured human mast cells (IgE cross-linking, β-Hexosaminidase release)
- Type: cell-based
- Conditions: Mast cell; Tables 1-x, compounds A; cultured human mast cells; read-out: human degranulation ave. IC50
Counter-ions that a name gives are not always drawn.
Measurement Name: IC50

Cc1ccnc(Nc2cccc(-c3cnc(CNC4CCN(C(=O)OC(C)(C)C)CC4)s3)n2)c1 [Compound A-386]    100 to 1000 nM

Look up and state reported IC50 for Cc1ccnc(Nc2cccc(-c3cnc(N4CCCC(C(N)=O)C4)s3)n2)c1 (stereo not shown) [Compound A-476]
< 100 nM

Look up and state reported IC50 for OCCc1ccnc(Nc2cccc(-c3cnc(N4CC[C@@H](O)C4)s3)n2)c1 [Compound A-577, dihydrochloride]
100 to 1000 nM

Look up and state reported IC50 for CC(=O)NCC1CCN(c2ncc(-c3cccc(Nc4cc(C)ccn4)n3)s2)CC1 [Compound A-487]
100 to 1000 nM

Look up and state reported IC50 for Cc1ccnc(Nc2cccc(-c3cnc(N4CC[C@@H](O)C4)s3)n2)c1 [Compound A-479]
100 to 1000 nM

Look up and state reported IC50 for Cc1ccnc(Nc2cccc(-c3cnc(N4CCN(CC(N)=O)C(=O)C4)s3)n2)c1 [Compound A-465]
100 to 1000 nM

Look up and state reported IC50 for Cc1ccnc(Nc2cccc(-c3cnc(CN4CCC[C@H]4CO)s3)n2)c1 [Compound A-379]
100 to 1000 nM

Look up and state reported IC50 for NC(=O)[C@@H]1CCCN1c1ncc(-c2cccc(Nc3cc(Cl)ccn3)n2)s1 [Compound A-542]
< 100 nM

Look up and state reported IC50 for Cc1ccnc(Nc2cccc(-c3cnc(N(CC(N)=O)[C@H]4CC[C@H](C(=O)O)CC4)s3)n2)c1 [Compound A-600]
> 1000 nM

Look up and state reported IC50 for CC1(c2ccnc(Nc3cccc(-c4cnc(N5CCC(CC(=O)O)CC5)s4)n3)c2)OCCO1 [Compound A-572, dihydrochloride]
100 to 1000 nM

----------
- Target System: UniProt:P43405
- Assay Comment: Syk kinase inhibition test (HTRF method)
- Format: biochemical
- Conditions: Tables 1-x, compounds A; read-out: sykHTRF ave IC50
Measurement Name: IC50

Here's what some known entries look like.
Cc1ccnc(Nc2cccc(-c3cnc(N4CCC(C)(C(N)=O)CC4)s3)n2)c1    < 100 nM
Cc1ccnc(Nc2cccc(-c3cnc(N4CCC(C(=O)N5CCOCC5)CC4)s3)n2)c1    100 to 1000 nM
Cc1ccnc(Nc2cccc(-c3cnc(C4CCCN(S(C)(=O)=O)C4)s3)n2)c1 (centres unmarked)    100 to 1000 nM
O=C(O)CCC1CCN(c2ncc(-c3cccc(Nc4ccccn4)n3)s2)CC1    100 to 1000 nM
Cc1ccnc(Nc2cccc(-c3cnc(CNC4CCN(C(=O)OC(C)(C)C)CC4)s3)n2)c1    100 to 1000 nM
Cc1ccnc(Nc2cccc(-c3cnc(N(C)C(C(=O)N4CCC(O)CC4)C(C)C)s3)n2)c1 (centres unmarked)    100 to 1000 nM
Cc1ccnc(Nc2cccc(-c3cnc(COCC(=O)N4CCN(C)C(=O)C4)s3)n2)c1    > 1000 nM

Proceeding to the next compound to report its IC50.
Look up and state reported IC50 for Cc1ccnc(Nc2cccc(-c3cnc(N4CCc5cc(CC(=O)O)ccc5C4)s3)n2)c1
< 100 nM

----------
- Target System: GST-Syk Full Protein (human) (Homo sapiens)
- Assay Comment: Syk kinase inhibition test (HTRF method)
- Format: biochemical
- Conditions: Tables 1-x, compounds A; read-out: sykHTRF ave IC50
- Description: Syk Kinase Inhibition Test (HTRF Method) After the compounds were serially diluted with dimethylsulfoxide (DMSO), 10 μL of those 10-fold diluted with kinase buffer (20 mM HEPES pH 7.0, 10 mM MgCl2, 50 mM NaCl, 1 mM 2-ME, 0.05% BSA) was added to opti-plate HTRF-96 (Packard) (final DMSO concentration: 2%). […]
pIC50: −log10 of the molar value. Structures can show the parent of a compound that is named as a salt.
Measurement Name: pIC50

Cc1ccnc(Nc2cccc(-c3cnc(CN4CC(=O)NC(=O)C4)s3)n2)c1    > 7.00
Cc1ccnc(Nc2cccc(-c3cnc(N(C)C4CCN(C(=O)C5CC5)CC4)s3)n2)c1    6.00 to 7.00
Cc1ccnc(Nc2cccc(-c3cnc(CN(C)C(C)(C)C(N)=O)s3)n2)c1    > 7.00

Look up and state reported pIC50 for CC(=O)NCC1CCN(c2ncc(-c3cccc(Nc4cc(C)ccn4)n3)s2)CC1
> 7.00

Look up and state reported pIC50 for Cc1ccnc(Nc2cccc(-c3cnc(N4CCSCC4)s3)n2)c1
6.00 to 7.00

Look up and state reported pIC50 for NC(=O)C1CCN(c2ncc(-c3cccc(Nc4cc(Cl)ccn4)n3)s2)CC1
> 7.00

Look up and state reported pIC50 for CC1(c2ccnc(Nc3cccc(-c4cnc(N5CCC[C@@H](C(=O)O)C5)s4)n3)c2)OCCO1
> 7.00

Look up and state reported pIC50 for CC(C)c1ccnc(Nc2cccc(-c3cnc(N4CCC(CC(=O)O)CC4)s3)n2)c1 [Compound A-711, dihydrochloride]
> 7.00
